Test system: Escherichia coli TOP10;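 further: peptides expressed intracellularly from a pBAD plasmid library in pooled LB shake-flask culture, induced with 0.3% L-arabinose, DNA abundance read by NGS, three biological replicates, DESeq2 with apeglm shrinkage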
Test: shrunken log2 fold change of peptide-encoding DNA abundance (4.5 h post-induction vs induction); higher = less antimicrobial activity (less host growth inhibition)
Conditions: time post-induction: 4.5 h; library: site-saturation at positions 5, 18, 19, 20
MEASURED PROPERTY: shrunken log2 fold change

- SEQUENCE TEXT: "RRIRTRPPRLPRPRPRPFPIPRP"
  MEASURED PROPERTY: "shrunken log2 fold change"
  VALUE: -1.16

Summary for this sequence, RRIRSRPPRLPRPRPRPYLMPRP : shrunken log2 fold change is -0.566

Per the records, this sequence ( RRIRWRPPRLPRPRPRPGPSPRP ) has shrunken log2 fold change equal to 0.223
